System: IFNG
Set-up: species or system human
Conditions: GENE IFNG; beneficial (lowers) or detrimental (raises) to iAge
recorded.endpoint: EFFECT

Illustrative cases are given below, each with its answer.
compound | test.target | EFFECT
O.O.O.O.O.O.O.O.O.O=C([O-])[C@@H]1[O][Sb]2([O-])([O][Sb]34([OH])[O][C@H]([C@H](O)CO)[C@H]([O]3)[C@H](C(=O)[O-])[O]4)[O][C@H]([C@H](O)CO)[C@@H]1[O]2.[Na+].[Na+].[Na+] [Sodium stibogluconate] | IFNG | Detrimental
CC1=C(/C=C/C(C)=C/C=C/C(C)=C/C(=O)O)C(C)(C)CCC1 [Tretinoin, reference compound] | IFNG | Detrimental
CC1=C(/C=C/C(C)=C\C=C\C(C)=C\C(=O)O)C(C)(C)CCC1 [Alitretinoin, reference compound] | IFNG | Detrimental
[Zn] | IFNG | Beneficial
CCCCCc1cc(O)c2c(c1)OC(C)(C)[C@@H]1CCC(C)=C[C@@H]21 [Dronabinol, reference compound] | IFNG | Detrimental

Query: Look at this compound and give its reported EFFECT. Oc1ccc(/C=C/c2cc(O)cc(O)c2)cc1 [Resveratrol, 3,5,4′-trihydroxy-trans-stilbene]
Reply: Detrimental

Query: // repeat for [Gd] and report
Reply: Beneficial

Query: And then CC[C@]1(O)C[C@H]2CN(CCc3c([nH]c4ccccc34)[C@@](C(=O)OC)(c3cc4c(cc3OC)N(C=O)[C@H]3[C@@](O)(C(=O)OC)[C@H](OC(C)=O)[C@]5(CC)C=CCN6CC[C@]43[C@@H]65)C2)C1 , what is it?
Reply: Beneficial

Query: Item: CN(Cc1cnc2nc(N)nc(N)c2n1)c1ccc(C(=O)N[C@@H](CCC(=O)O)C(=O)O)cc1 [methotrexate, Methotrexate, reference compound]
Reply: Detrimental

Query: Ok, now NC(=O)c1ncn([C@@H]2O[C@H](CO)[C@@H](O)[C@H]2O)n1 [Ribavirin, reference compound]
Reply: Detrimental
